Counter-ions that a name gives are not always drawn.
The next entries give measured log10 of Ki for UniProt:P00735.
Plainly stated, the numbers are log10 of Ki given in µM.

Reference set (4 entries):
# COMPOUND, TEST_RESULT
rows = [
    ("N=C(N)N1CCC(OCC[C@@H]2CCCCN2C(=O)[C@H](CC(=O)O)NC2CC3CCC2C3)CC1 (some centres unmarked) [Example 3, dihydrochloride]", -2.39),
    ("CCN(C1CCCCC1)[C@@H](CC(=O)O)C(=O)N1CCCCC1CCOC1CCN(C(=N)N)CC1 (mixture of isomers) [Example 29, dihydrochloride]", -1.80),
    ("N=C(N)N1CCC(OCCC2CCCCN2C(=O)[C@H](CC(=O)O)NC2CCCCC2O)CC1 (mixture of isomers) [Example 17, bis-trifluoroacetate]", -1.46),
    ("CN(C1CCCC(C)(C)C1)[C@@H](CC(=O)O)C(=O)N1CCCC[C@H]1CCOC1CCN(C(=N)N)CC1 (some centres unmarked) [Example 25, dihydrochloride]", -2.70),
]

Enquiry: Report log10 of Ki for N=C(N)c1ccc(OCCC2CCCCN2C(=O)[C@H](CC(=O)O)NC2CCCCC2)cc1 (mixture of isomers) [Example 31, dihydrochloride] please.
Return: -1.35

====

target: bovine pancreatic trypsin (Bos taurus); construct: from tissue; host or cells: bovine pancreas; assay: Chromogenic assay, inhibition of trypsin; format: biochemical; settings: in vitro, substrate S2222, pH 8.0, 30° C.
Sequence (P00760 24-246): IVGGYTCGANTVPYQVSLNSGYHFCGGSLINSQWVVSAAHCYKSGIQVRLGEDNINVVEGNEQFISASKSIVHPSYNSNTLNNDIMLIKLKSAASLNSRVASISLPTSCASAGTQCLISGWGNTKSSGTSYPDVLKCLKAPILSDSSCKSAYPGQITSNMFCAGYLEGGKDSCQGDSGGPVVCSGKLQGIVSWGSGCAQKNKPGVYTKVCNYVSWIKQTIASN
Where a name gives a salt, the structure may show the parent alone.
PARAMETER_MEASURED: log10 of Ki (log10 of the value in nM)
Plainly stated, the numbers are log10 of Ki given in nM.

Reference set (5 entries):
# COMPOUND, SYSTEM, log10 of Ki
measured = [
    ("CCN(C1CCCCC1)[C@@H](CC(=O)O)C(=O)N1CCCCC1CCOC1CCN(C(=N)N)CC1 (mixture of isomers) [Example 29, dihydrochloride]", "bovine pancreatic trypsin (Bos taurus)", 3.70),
    ("N=C(N)N1CCC(OCCC2CCCCN2C(=O)[C@H](CC(=O)O)NC2CCCCCCC2)CC1 (mixture of isomers) [Example 16, dihydrochloride]", "bovine pancreatic trypsin (Bos taurus)", 2.86),
    ("N=C(N)N1CCC(OCCC2CCCCN2C(=O)[C@H](CC(=O)O)NC2CCCCC2O)CC1 (mixture of isomers) [Example 17, bis-trifluoroacetate]", "bovine pancreatic trypsin (Bos taurus)", 4.04),
    ("N=C(N)N1CCC(OCC[C@@H]2CCCCN2C(=O)[C@H](CC(=O)O)NC2CC3CCC2C3)CC1 (stereo partly drawn) [Example 3, dihydrochloride]", "bovine pancreatic trypsin (Bos taurus)", 3.08),
    ("N=C(N)c1ccc(OCCC2CCCCN2C(=O)[C@H](CC(=O)O)NC2CCCCC2)cc1 (mixture of isomers) [Example 31, dihydrochloride]", "bovine pancreatic trypsin (Bos taurus)", 3.11),
]

Here's the next entry for you.
Enquiry: Report log10 of Ki for CN(C1CCCC(C)(C)C1)[C@@H](CC(=O)O)C(=O)N1CCCC[C@H]1CCOC1CCN(C(=N)N)CC1 (stereo partly drawn) [Example 25, dihydrochloride] please.
Return: 2.56
